Can you tell me GI50 for the items I'm about to list?
- System: HOP-62
- Procedure details: NCI tumour cell line growth inhibition, 48 h
Calls of active or inactive are those of the source. Cut-off read from the data, not from the text of the source: active = GI50 up to about 1.1 µM and inactive = higher.

Compound: CC1(C)Oc2ccc3c(=O)cc(-c4ccccc4)oc3c2C1C(=O)O (stereo unspecified)
Experimental target: HOP-62
Measured endpoint: GI50
Reported measurement: > 100 µM (inactive)

Compound: CN(c1ccccc1)c1cc2ccccc2nn1
Experimental target: HOP-62
Measured endpoint: GI50
Reported measurement: > 100 µM (inactive)

Compound: Oc1ccc2c(c1)CCc1c-2n(CCN2CCOCC2)c2ccc(O)cc12
Experimental target: HOP-62
Measured endpoint: GI50
Reported measurement: 43.4 µM (inactive)

Compound: CCN(CC)CCOc1ccc(N2Cc3cc(OC)c(OC)cc3C2=O)cc1
Experimental target: HOP-62
Measured endpoint: GI50
Reported measurement: > 100 µM (inactive)

Compound: CN1C/C(=C\c2ccccc2[N+](=O)[O-])C(=O)/C(=C/c2ccccc2[N+](=O)[O-])C1
Experimental target: HOP-62
Measured endpoint: GI50
Reported measurement: 2.48 µM (inactive)

Compound: C=CC1(CC/C(=C\[N+](=O)[O-])c2ccc(OC)c(OC)c2)OCC(C)(C)CO1
Experimental target: HOP-62
Measured endpoint: GI50
Reported measurement: 18.3 µM (inactive)

Compound: CCCCCCCC(=O)N/N=C/c1ccc(Sc2nccn2C)c([N+](=O)[O-])c1
Experimental target: HOP-62
Measured endpoint: GI50
Reported measurement: 17.5 µM (inactive)

Compound: COc1ccc2oc(=N)c(C(N)=S)cc2c1
Experimental target: HOP-62
Measured endpoint: GI50
Reported measurement: 31.8 µM (inactive)

Kindly give each listed record's GI50.
1. Nc1cc(S(=O)(=O)O)cc2cc(S(=O)(=O)O)c(/N=N/c3ccc(-c4ccc(/N=N/c5c(S(=O)(=O)O)cc6cc(S(=O)(=O)O)cc(N)c6c5O)cc4)cc3)c(O)c12
2. Nc1ncc2c(n1)-c1ccccc1OC2N1CCOCC1 (stereo unspecified)
3. CC1OC(O)CC(OC(=O)c2ccccc2)C1OC(=O)c1ccccc1 (stereo unspecified)
4. O=C(c1ccco1)N(Cc1ccco1)C(=S)Nc1ccccc1
5. C=C(C)[C@@H]1CC=C(CO)CC1

Reply:
1: > 100 µM (inactive); 2: > 100 µM (inactive); 3: 71.6 µM (inactive); 4: 36.6 µM (inactive); 5: 184 µM (inactive)

Kindly give each listed record's GI50.
1. CCCO/S(=N\S(=O)(=O)c1ccccc1)c1ccccc1[N+](=O)[O-] (stereo unspecified)
2. NC(Cc1ccc(O)cn1)C(=O)NC(C(=O)O)c1ccccc1 (stereo unspecified)
3. CCOC(=O)/C(C(=O)Nc1cccc(C(F)(F)F)c1)=C(/N)N1CCCC1
4. COc1cc2oc3c(c(=O)c2c(O)c1/C=C/C(C)C)CCC(C)(C)Oc1cc(O)ccc1-3

Reply:
["> 100 µM (inactive)", "> 100 µM (inactive)", "44.6 µM (inactive)", "15.4 µM (inactive)"]
